Reported pKd values for a set of binders
# system: T1, GIPC1, O14908
# T1 sequence (O14908 128-223, limits assumed, looked up): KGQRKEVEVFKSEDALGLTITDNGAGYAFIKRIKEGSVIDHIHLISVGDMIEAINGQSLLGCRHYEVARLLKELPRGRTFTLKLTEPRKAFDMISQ
# method.description: holdup assay
# Design: key: below the threshold = too weak to quantify, mostly under pKd 3.1 to 4
# recorded.conditions: plain residues with an end cap or a label only (N-terminal biotin on a linker: ttds)
Please reply with the value in numeric form only.

Before answering, review these 4 worked examples.
binder: RLPKIKETTV [FRMPD4, Q14CM0]
pKd: 4.44
--
binder: RHTTSTETAV [HPV30-E6, P36809]
pKd: 4.7
--
binder: SKPTRRETEV [HPV35-E6, P27228]
pKd: 4.69
--
binder: SGSRPSATVV [HPV73-E6, Q82005]
pKd: 4.64

Shift focus to the following entry.
// pKd lookup, key: RLQRRRETQV [HPV18-E6, P06463]
4.44
